# Test system: LNCaP cells
# Assay explanation: Antiproliferative activity, sulforhodamine B assay, LNCaP prostate cancer cells
# Format: cell-based, human
# Measurement setup: Homo sapiens, 48 h, SRB, mean (±SEM)
Parameter measured: GI50 (µM)

Please review the entries below; each comes with its answer.
[
  {
    "Compound": "Cc1ccc(N(C(=O)c2cccc(Oc3no[n+]([O-])c3S(=O)(=O)c3ccccc3)c2)C(C(=O)NC(C)(C)C)c2ccccc2)cc1 (stereo not drawn) [Ugi-Fx (8a)]",
    "GI50 [µM]": 20.2
  },
  {
    "Compound": "CCCCN(CC(=O)NC(C)(C)C)C(=O)c1cccc(Oc2no[n+]([O-])c2S(=O)(=O)c2ccccc2)c1 [8f]",
    "GI50 [µM]": 29.9
  }
]

(P) O=Cc1cccc(Oc2no[n+]([O-])c2S(=O)(=O)c2ccccc2)c1 [11a, reference compound]
(Q) CC(C)(C)Nc1c(-c2ccccc2Oc2no[n+]([O-])c2S(=O)(=O)c2ccccc2)nc2ccccn12 [12b]
**Q:** Of the two listed items, P and Q , which carries the larger GI50 figure? State the label of the item chosen.
**A:** P
(P: 24.5 µM, Q: 7.7 µM)

====

# Test system: LNCaP cells
# Assay explanation: Antiproliferative activity, sulforhodamine B assay, LNCaP prostate cancer cells
# Type: cell-based, human
# Measurement setup: Homo sapiens, 48 h, SRB, mean (±SEM)
Parameter measured: GI50 (µM)

Please review the entries below; each comes with its answer.
[
  {
    "Compound": "Cc1ccc(N(CC(=O)NC(C)(C)C)C(=O)c2cccc(Oc3no[n+]([O-])c3S(=O)(=O)c3ccccc3)c2)cc1",
    "Parameter measured": "GI50",
    "Observed result": 21.8
  },
  {
    "Compound": "Cc1ccc(N(C(=O)c2ccccc2Oc2no[n+]([O-])c2S(=O)(=O)c2ccccc2)C(C(=O)NC(C)(C)C)c2ccccc2)cc1 (stereo not shown)",
    "Parameter measured": "GI50",
    "Observed result": 13.3
  },
  {
    "Compound": "CC(C)(C)Nc1c(-c2cccc(Oc3no[n+]([O-])c3S(=O)(=O)c3ccccc3)c2)nc2ccccn12 [12a]",
    "Parameter measured": "GI50",
    "Observed result": 24.7
  },
  {
    "Compound": "Cc1ccc(N(C(=O)c2ccccc2)C(C(=O)NC(C)(C)C)c2cccc(Oc3no[n+]([O-])c3S(=O)(=O)c3ccccc3)c2)cc1 (stereo not shown)",
    "Parameter measured": "GI50",
    "Observed result": 36.7
  },
  {
    "Compound": "CC(C)(C)Nc1c(-c2cccc(Oc3no[n+]([O-])c3S(=O)(=O)c3ccccc3)c2)nc2sccn12 [12e]",
    "Parameter measured": "GI50",
    "Observed result": 16.5
  }
]

(a) Cc1ccc(N(C(=O)c2ccc(Oc3no[n+]([O-])c3S(=O)(=O)c3ccccc3)cc2)C(C(=O)NC(C)(C)C)c2ccccc2)cc1 (stereo not shown)
(b) CC(C)(C)Nc1c(-c2cccc(Oc3no[n+]([O-])c3S(=O)(=O)c3ccccc3)c2)nc2cnccn12 [12d]
**Q:** Of the two listed items, a and b , which carries the larger GI50 figure? State the label of the item chosen.
**A:** a

====

# Test system: T24 cells
# Assay explanation: Antiproliferative activity, sulforhodamine B assay, T24 bladder cancer cells
# Format: cell-based, human
# Measurement setup: Homo sapiens, T-24, 48 h, SRB, mean (±SEM)
Parameter measured: GI50 (µM)

[
  {
    "Compound": "CC(C)(C)Nc1c(-c2cccc(Oc3no[n+]([O-])c3S(=O)(=O)c3ccccc3)c2)nc2cnccn12 [12d]",
    "GI50 / µM": 2.72
  },
  {
    "Compound": "CCCCN(CC(=O)NC(C)(C)C)C(=O)c1cccc(Oc2no[n+]([O-])c2S(=O)(=O)c2ccccc2)c1 [8f]",
    "GI50 / µM": 2.86
  },
  {
    "Compound": "CC(C)(C)Nc1c(-c2ccccc2Oc2no[n+]([O-])c2S(=O)(=O)c2ccccc2)nc2ccccn12 [12b]",
    "GI50 / µM": 0.85
  },
  {
    "Compound": "O=C(O)c1cccc(Oc2no[n+]([O-])c2S(=O)(=O)c2ccccc2)c1 [compound 3, reference compound]",
    "GI50 / µM": 8.6
  }
]

(I) O=Cc1cccc(Oc2no[n+]([O-])c2S(=O)(=O)c2ccccc2)c1 [11a, reference compound]
(II) Cc1ccc(N(C(=O)c2ccc(Oc3no[n+]([O-])c3S(=O)(=O)c3ccccc3)cc2)C(C(=O)NC(C)(C)C)c2ccccc2)cc1 (stereo not shown) [8c]
**Q:** Of the two listed items, I and II , which carries the larger GI50 figure? State the label of the item chosen.
**A:** I

====

# System: T24 cells
# Assay explanation: Antiproliferative activity, sulforhodamine B assay, T24 bladder cancer cells
# Type: cell-based, human
# Measurement setup: Homo sapiens, T-24, 48 h, SRB, mean (±SEM)
Parameter measured: GI50 (nM)

(I) Cc1ccc(N(CC(=O)NC(C)(C)C)C(=O)c2cccc(Oc3no[n+]([O-])c3S(=O)(=O)c3ccccc3)c2)cc1 [8d]
(II) CC(C)(C)Nc1c(-c2cccc(Oc3no[n+]([O-])c3S(=O)(=O)c3ccccc3)c2)nc2sccn12 [12e]
**Q:** Compare GI50: is it lower for I or for II ? State the label of the item chosen.
**A:** II
(II: 830 nM, I: 2100 nM)

(A) CCCCN(C(=O)c1cccc(Oc2no[n+]([O-])c2S(=O)(=O)c2ccccc2)c1)C(C(=O)NC(C)(C)C)c1ccccc1 (stereo not drawn) [8e]
(B) CC(C)(C)Nc1c(-c2ccc(Oc3no[n+]([O-])c3S(=O)(=O)c3ccccc3)cc2)nc2ccccn12 [12c]
**Q:** Compare GI50: is it lower for A or for B ? State the label of the item chosen.
**A:** A
(A: 1530 nM, B: 2990 nM)

====

# Tested on: LNCaP cells
# Assay explanation: Antiproliferative activity, sulforhodamine B assay, LNCaP prostate cancer cells
# Format: cell-based, human
# Measurement setup: Homo sapiens, 48 h, SRB, mean (±SEM)
Parameter measured: GI50 (µM)

[
  {
    "Compound": "CCCCN(C(=O)c1cccc(Oc2no[n+]([O-])c2S(=O)(=O)c2ccccc2)c1)C(C(=O)NC(C)(C)C)c1ccccc1 (centres unmarked)",
    "GI50, µM": 21.8
  },
  {
    "Compound": "O=C(O)c1cccc(Oc2no[n+]([O-])c2S(=O)(=O)c2ccccc2)c1 [compound 3, reference compound]",
    "GI50, µM": 32.5
  },
  {
    "Compound": "CC(C)(C)Nc1c(-c2ccc(Oc3no[n+]([O-])c3S(=O)(=O)c3ccccc3)cc2)nc2ccccn12 [12c]",
    "GI50, µM": 24.2
  }
]

====

# Test system: T24 cells
# Assay explanation: Antiproliferative activity, sulforhodamine B assay, T24 bladder cancer cells
# Type: cell-based, human
# Measurement setup: Homo sapiens, T-24, 48 h, SRB, mean (±SEM)
Parameter measured: GI50 (nM)

[
  {
    "Molecule": "Cc1ccc(N(C(=O)c2ccccc2Oc2no[n+]([O-])c2S(=O)(=O)c2ccccc2)C(C(=O)NC(C)(C)C)c2ccccc2)cc1 (centres unmarked) [8b]",
    "Observed result": 1830
  },
  {
    "Molecule": "Cc1ccc(N(C(=O)c2ccccc2)C(C(=O)NC(C)(C)C)c2cccc(Oc3no[n+]([O-])c3S(=O)(=O)c3ccccc3)c2)cc1 (centres unmarked) [8g]",
    "Observed result": 1700
  }
]

(a) CC(C)(C)Nc1c(-c2cccc(Oc3no[n+]([O-])c3S(=O)(=O)c3ccccc3)c2)nc2ccccn12 [12a]
(b) Cc1ccc(N(C(=O)c2cccc(Oc3no[n+]([O-])c3S(=O)(=O)c3ccccc3)c2)C(C(=O)NC(C)(C)C)c2ccccc2)cc1 (centres unmarked) [Ugi-Fx (8a)]
**Q:** Compare GI50: is it lower for a or for b ? State the label of the item chosen.
**A:** b
